Origin of values: PubChem BioAssay AID1259407

- System: CCRIS mutagenicity, Ames/micronucleus/aberration tests
- Measurement protocol: CCRIS mutagenicity studies
- Applied conditions: Test System: AMES SALMONELLA TYPHIMURIUM; Strain/Indicator: TA98; Metabolic Activation: RAT, LIVER, S-9, AROCLOR 1254 (10%); Method: PREINCUBATION
- Description: The CCRIS database contains chemical records with carcinogenicity, mutagenicity, tumor promotion, and tumor inhibition test results. It was developed by the National Cancer Institute (NCI). Data are derived from studies cited in primary journals, current awareness tools, NCI reports, and other sources. Test results have been reviewed by experts in carcinogenesis and mutagenesis. CCRIS provides historical information from the years 1985 - 2011. It is no longer updated. […]
Calls of active or inactive are those of the source. No rule for the calls is given here.
// one of active, inactive, no free text

Molecule: NCCCN
Tgt: CCRIS mutagenicity, Ames/micronucleus/aberration tests
Group: inactive
//
Molecule: CC(C)CC(C)N (configuration not stated)
Tgt: CCRIS mutagenicity, Ames/micronucleus/aberration tests
Group: inactive
//
Molecule: CC(N)CN (configuration not stated)
Tgt: CCRIS mutagenicity, Ames/micronucleus/aberration tests
Group: inactive
//
Molecule: [O]=[Cd]
Tgt: CCRIS mutagenicity, Ames/micronucleus/aberration tests
Group: inactive
//
Molecule: O=C1c2ccccc2C(=O)C1(O)O
Tgt: CCRIS mutagenicity, Ames/micronucleus/aberration tests
Group: inactive

Which outcome was entered for the molecule "C/C(C=O)=C\c1ccccc1" in this test?
inactive

// outcome(item) with item = "CN(C)CCN(C)C"
inactive

Hi team, can someone confirm the assay call for "CCOC(=O)c1ccccc1C(=O)OCC" ?
inactive

# outcome recorded in this test, key = "O=C(Cl)c1ccc([N+](=O)[O-])cc1"
active

GET /call?item= "CCCNC(=O)NS(=O)(=O)c1ccc(Cl)cc1" returns the recorded outcome of this test.
inactive

Give the logged outcome of this assay for the following molecule: C/C=C1\CC2C=CC1C2 (configuration not stated)
inactive

Fill in: this test's call for "Cc1ccc(C)o1" is ___
inactive
